MEASUREMENT PARAMETERS: buffer; pH 7.4; 200.0 µM
Below, each entry is listed alongside its reported solubility kinetic.
Give just the numeric value; µg/mL need not be written.

Check out these entries, answers already filled in.
>  <COMPOUND>
COc1ccc(N2C(=O)C(CN3CCCCC3)C2c2ccccc2)cc1 (stereo not given)

>  <solubility kinetic / µg/mL>
51.7

$$$$
>  <COMPOUND>
COc1ccc(/C=C/C(=O)c2c(C)cc(C)[nH]c2=O)c2ccccc12

>  <solubility kinetic / µg/mL>
15.7

$$$$
>  <COMPOUND>
O=C(Nc1cc(S(=O)(=O)Nc2ccc(Cl)cc2)ccc1O)c1ccc(F)cc1F

>  <solubility kinetic / µg/mL>
4.2

$$$$

Let us examine a further case.
Returns the measured solubility kinetic for the input compound. Input: CCCOc1ccc(S(=O)(=O)N2CCN(C)CC2)c2ccccc12
39.2
